# Tested on: SF-268 CNS
# experiment-summary: NCI tumour cell line growth inhibition, 48 h
quantity-measured: TGI

Answered cases to consult:
{"compound": "C=C(CN(C)C)C(=O)c1ccc(C(=O)C(=C)CN(C)C)cc1", "quantity-measured": "TGI", "assay-value": "> 100 µM"}
{"compound": "O=C(CC(=O)Nc1ccccc1)NNC(Sc1ccccc1)c1cc(N=Nc2ccc(Br)cc2)ccc1O (stereo not drawn)", "quantity-measured": "TGI", "assay-value": "8.9 µM"}
{"compound": "O=S(=O)(OI(OI(OS(=O)(=O)C(F)(F)F)c1ccccc1)c1ccccc1)C(F)(F)F", "quantity-measured": "TGI", "assay-value": "> 100 µM"}

Briefly, TGI measured for "Clc1sc(Cl)c2c1[C@@H](Cl)C[C@@H]2Br" : > 100 µM

Lab book: TGI of "COc1cc(OC)c(OC)cc1/C=N/NC(=O)N/N=C/c1cc(OC)c(OC)cc1OC" noted as > 100 µM

The compound listed as CC(C)(C)OC(=O)NC(CSSCC(NC(=O)OC(C)(C)C)C(=O)O)C(=O)O (stereo not drawn) has a reported TGI of > 100 µM

// recorded TGI for "[N-]=[N+]=CC(=O)OC(CCl)CCl" : > 100 µM

Sample "O=C(OCC(Cl)(Cl)Cl)N1CC[C@H](C2CCCCC2)C1" ; TGI observed: 36.3 µM

The recorded TGI for "CC12c3ccccc3C(OC=O)(c3ccccc31)C1(C)c3ccccc3C2(OC=O)c2ccccc21" is > 100 µM

* * *

Measured TGI accompanies every entry in the list below.
# System: KM20L2 colon
# experiment-summary: NCI tumour cell line growth inhibition, 48 h

Sample answers from the record:
{"molecule": "CC(=O)N/C(=C\\c1ccccc1/C=C(\\NC(C)=O)c1nc2cc(C)c(C)cc2[nH]1)c1nc2cc(C)c(C)cc2[nH]1", "assay-value": "> 100 µM"}
{"molecule": "CCCCCCCC(=O)OCC1OC(n2cc(F)c(=O)[nH]c2=O)C(N)C(OC(=O)CCCCCCC)C1O (stereo unspecified)", "assay-value": "33.7 µM"}
{"molecule": "CN(C)CCNC(=O)Cc1ccccc1Nc1c(Cl)cccc1Cl", "assay-value": "13.9 µM"}
{"molecule": "Cc1nc2c(N)ncnc2o1", "assay-value": "> 100 µM"}

Tested on KM20L2 colon, the item "CCC(C)(C)n1c(C)nc2c1C(=O)c1ccccc1C2=O" showed TGI equal to > 100 µM

Entry "C=C(CN(C)C)C(=O)c1ccc(C(=O)C(=C)CN(C)C)cc1" : TGI on KM20L2 colon = > 100 µM

Case "CCOC(=O)Cc1csc(Nc2ccccc2[N+](=O)[O-])n1" , KM20L2 colon, TGI recorded as > 100 µM

Entry "CCCCCCCCCCCC[N+]12CC[N+](CCN)(CC1)CC2" under KM20L2 colon had TGI of > 100 µM

Log: KM20L2 colon, molecule "COc1cc(C[P+](c2ccccc2)(c2ccccc2)c2ccccc2)cc(OC)c1OC" , TGI = > 100 µM

Log: KM20L2 colon, molecule O=C1NC(O)CCN1C1OC(CO)C(O)C1O (stereo unspecified) , TGI = > 127 µM

Reading of TGI for "Oc1oc(C(=C2N=c3ccccc3=N2)c2ccc(Cl)cc2)c(O)c1-c1ccc(Cl)cc1" with KM20L2 colon: 10.2 µM
